experimental-protocol: chemical genetic growth profiling, strain panel (AID 1159580);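 note: tested at 20 µM; growth read once vehicle control cultures reached saturation at 30 °C; 1 = growth at the plate median or of vehicle wells; lower values mean less growth of the strain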
condition-details: S. cerevisiae deletion strains, growth OD, locus YDL035C, strain GPR1, stronger effect = lower value
In all, about 5,500 compounds went through this assay and about 2,000 (36%) were called active. About 18% were inconclusive and are not listed. This is one part of the list.
measurement-label: normalized growth
Number only, no unit.

Q: Suppose we examine the molecule C[C@@H]1CC2C3CCC4=CC(=O)C=C[C@]4(C)[C@@]3(F)[C@@H](O)C[C@]2(C)[C@@]1(O)C(=O)COP(=O)(O)O (stereo not given in full) ; what normalized growth value has been reported?
Result: 1.03

Q: Suppose we examine the molecule `C[C@](N)(Cc1ccc(O)c(O)c1)C(=O)O` ; what normalized growth value has been reported?
Result: 0.91

Q: Suppose we examine the molecule `COP(=S)(OC)Oc1ccc(SC)c(C)c1` ; what normalized growth value has been reported?
Result: 1.01

Q: Suppose we examine the molecule CC(=O)Oc1cc(C)c2c(c1C(OC(C)=O)OC(C)=O)Oc1c(c(C)c(OC(C)=O)c3c1C(OC(C)=O)OC3=O)OC2=O (stereo not given) ; what normalized growth value has been reported?
Result: 1.03

Q: Suppose we examine the molecule CC(Cc1ccc(O)c(O)c1)(NN)C(=O)O (stereo not given) ; what normalized growth value has been reported?
Result: 1

Q: Suppose we examine the molecule `C[C@@]12C(=O)OC(=O)[C@]1(C)C1CCC2O1` ; what normalized growth value has been reported?
Result: 0.919

Q: Suppose we examine the molecule `O=C(O)c1cc(=O)c2c(OCC(O)COc3cccc4oc(C(=O)O)cc(=O)c34)cccc2o1` ; what normalized growth value has been reported?
Result: 1.01
